system: S. aureus ATCC 6538; test: MIC, double dilution method, S. aureus ATCC 6538; assay type: cell-based; settings: Staphylococcus aureus, ATCC6538, 24 h
parameter: MIC (µg/mL)
Answers are plain numbers, in µg/mL.

Guide cases for MIC, answers given:
# compound, observed.result
measured = [
    ("CCCN1C(=O)/C(=C(\\O)c2ccc(Cl)cc2)c2ccccc21 [Compound 10h]", 0.5),
    ("CN1C(=O)/C(=C(\\O)c2ccc(Br)cc2)c2ccccc21 [Compound 10i]", 2),
    ("CN1C(=O)/C(=C(\\O)c2ccc(F)cc2)c2ccccc21 [Compound 10d]", 4),
    ("Cc1ccc(/C(O)=C2/C(=O)N(C)c3ccccc32)cc1 [Compound 10c]", 2),
    ("Cc1cccc2c1N(C)C(=O)/C2=C(\\O)c1ccc(Cl)cc1 [Compound 10f]", 0.5),
]

# batch size: 3; output MIC per entry
1. CN1C(=O)/C(=C(\O)c2ccc(Cl)cc2)c2ccccc21 [Compound 10e]
2. CN1C(=O)/C(=C(\O)c2ccccc2)c2ccccc21 [Compound 10b]
3. CN1C(=O)/C(=C(\O)c2ccc(Cl)cc2)c2cccc(Br)c21 [Compound 10g]

### Response
2
8
2

====

test system: E. coli ATCC 25922; assay: MIC, double dilution method, E. coli ATCC 25922; assay type: cell-based; conditions: Escherichia coli, ATCC25922; E. coli ATCC 25922, Gram-negative; 24 h culture; read-out: MIC
parameter: MIC

Guide cases for MIC, answers given:
# molecule, target.desc, MIC
measured = [
    ("C/C(O)=C1/C(=O)N(C)c2cc(Br)ccc21 [Compound 5m]", "E. coli ATCC 25922", "> 64 µg/mL"),
    ("CCN1C(=O)/C(=C(/C)O)c2ccccc21 [Compound 5t]", "E. coli ATCC 25922", "> 64 µg/mL"),
    ("CN1C(=O)/C(=C(\\O)c2cccs2)c2ccccc21 [Compound 10a]", "E. coli ATCC 25922", "> 64 µg/mL"),
]

# batch size: 3; output MIC per entry
1. CCCN1C(=O)/C(=C(/C)O)c2ccccc21 [Compound 5v]
2. C/C(O)=C1/C(=O)N(C)c2ccccc21 [Compound 5a]
3. C/C(O)=C1/C(=O)N(C)c2ccc(C#N)cc21 [Compound 5p]

### Response
1: > 64 µg/mL; 2: > 64 µg/mL; 3: > 64 µg/mL

# batch size: 3; output MIC per entry
1. C/C(O)=C1/C(=O)N(C)c2ccc(Br)cc21 [Compound 5n]
2. C/C(O)=C1/C(=O)N(C)c2ccc(F)cc21 [Compound 5g]
3. C/C(O)=C1/C(=O)N(C)c2cc(Cl)ccc21 [Compound 5j]

### Response
1. > 64 µg/mL
2. > 64 µg/mL
3. > 64 µg/mL

# batch size: 6; output MIC per entry
1. C/C(O)=C1/C(=O)N(C)c2cccc(F)c21 [Compound 5h]
2. C/C(O)=C1/C(=O)N(Cc2ccccc2)c2ccccc21 [Compound 5u]
3. C/C(O)=C1/C(=O)N(C)c2c(Cl)cccc21 [Compound 5i]
4. C/C(O)=C1/C(=O)N(C)c2ccc(Cl)cc21 [Compound 5k]
5. COc1ccc(CN2C(=O)/C(=C(/C)O)c3ccccc32)cc1 [Compound 5w]
6. OC(Cn1cncn1)(Cn1cncn1)c1ccc(F)cc1F [Flu, Fluconazole, reference compound]

### Response
1. > 64 µg/mL
2. 64 µg/mL
3. > 64 µg/mL
4. > 64 µg/mL
5. > 64 µg/mL
6. > 64 µg/mL

====

Task for the reader: assign each of the following compounds its reported MIC.
tested on: E. coli ATCC 25922; test: MIC, double dilution method, E. coli ATCC 25922; assay type: cell-based; conditions: Escherichia coli, ATCC25922; E. coli ATCC 25922, Gram-negative; 24 h culture; read-out: MIC

Guide cases for MIC, answers given:
# smiles.repr, MIC
measured = [
    ("C/C(O)=C1/C(=O)N(C)c2cc(F)ccc21", "> 64 µg/mL"),
    ("C/C(O)=C1/C(=O)N(C)c2ccc(C)cc21", "> 64 µg/mL"),
    ("C/C(O)=C1/C(=O)N(C)c2c(C)cccc21", "64 µg/mL"),
    ("COc1cccc2c1N(C)C(=O)/C2=C(/C)O", "> 64 µg/mL"),
    ("C/C(O)=C1/C(=O)N(C)c2c(F)cccc21", "> 64 µg/mL"),
]

### Prompt For E. coli ATCC 25922, provide MIC of `C/C(O)=C1/C(=O)N(C)c2ccc(C(F)(F)F)cc21` please.
### Response > 64 µg/mL

====

assay: Cytotoxicity, MTT assay, HepG2; type: cell-based; details: human, HepG2 cells, 48 h incubation
parameter: IC50 at 48 h

# compound, IC50 at 48 h
records = [
    ("Cc1cccc2c1N(C)C(=O)/C2=C(\\O)c1ccc(Cl)cc1 [Compound 10f]", "> 100 µM"),
    ("CCCN1C(=O)/C(=C(\\O)c2ccc(Cl)cc2)c2ccccc21 [Compound 10h]", "41.6 µM"),
]

Please examine the following record next.
### Prompt Would you kindly share the measured IC50 at 48 h for CN1C(=O)/C(=C(\O)c2ccc(Cl)cc2)c2cccc(Br)c21 [Compound 10g] ?
### Response > 100 µM

====

system: E. coli ATCC 25922; assay: MIC, double dilution method, E. coli ATCC 25922; assay type: cell-based; settings: Escherichia coli, ATCC25922, 24 h
Task for the reader: assign each of the following compounds its reported MIC.

# compound, MIC
records = [
    ("CCCN1C(=O)/C(=C(\\O)c2ccc(Cl)cc2)c2ccccc21 [Compound 10h]", "16 µg/mL"),
    ("CN1C(=O)/C(=C(\\O)c2ccc(Cl)cc2)c2cccc(Br)c21 [Compound 10g]", "64 µg/mL"),
    ("CN1C(=O)/C(=C(\\O)c2ccc(Br)cc2)c2ccccc21 [Compound 10i]", "> 64 µg/mL"),
    ("Cc1ccc(/C(O)=C2/C(=O)N(C)c3ccccc32)cc1 [Compound 10c]", "64 µg/mL"),
]

Please examine the following record next.
### Prompt Would you kindly share the measured MIC for CN1C(=O)/C(=C(\O)c2ccccc2)c2ccccc21 [Compound 10b] ?
### Response 64 µg/mL

====

system: E. coli 1924; experiment: MIC, double dilution method, E. coli 1924; format: cell-based, Escherichia coli; conditions: Escherichia coli, 1924, 24 h
parameter: MIC (µg/mL)
One number for each entry, in µg/mL.

# batch size: 3; output MIC per entry
1. CN1C(=O)/C(=C(\O)c2ccc(F)cc2)c2ccccc21 [Compound 10d]
2. CN1C(=O)/C(=C(\O)c2ccccc2)c2ccccc21 [Compound 10b]
3. Cc1ccc(/C(O)=C2/C(=O)N(C)c3ccccc32)cc1 [Compound 10c]

### Response
1. 8
2. 8
3. 8

# batch size: 3; output MIC per entry
1. CN1C(=O)/C(=C(\O)c2ccc(Cl)cc2)c2cccc(Br)c21 [Compound 10g]
2. CN1C(=O)/C(=C(\O)c2ccc(Cl)cc2)c2ccccc21 [Compound 10e]
3. Cc1cccc2c1N(C)C(=O)/C2=C(\O)c1ccc(Cl)cc1 [Compound 10f]

### Response
1
8
8

# batch size: 2; output MIC per entry
1. CCCN1C(=O)/C(=C(\O)c2ccc(Cl)cc2)c2ccccc21 [Compound 10h]
2. CN1C(=O)/C(=C(\O)c2ccc(Br)cc2)c2ccccc21 [Compound 10i]

### Response
[1, 8]

====

system: E. coli ATCC 25922; test: MIC, double dilution method, E. coli ATCC 25922; type: cell-based; settings: Escherichia coli, ATCC25922, 24 h
Task for the reader: assign each of the following molecules its reported MIC.
Give bare numbers, in µg/mL.

# molecule, target.desc, MIC, µg/mL
measured = [
    ("CN1C(=O)/C(=C(\\O)c2ccc(Cl)cc2)c2ccccc21 [Compound 10e]", "E. coli ATCC 25922", 64),
]

Please examine the following record next.
### Prompt For E. coli ATCC 25922, provide MIC of CN1C(=O)/C(=C(\O)c2ccc(F)cc2)c2ccccc21 [Compound 10d] please.
### Response 64

====

tested on: S. aureus 4220; test: MIC, double dilution method, S. aureus 4220; format: cell-based; conditions: Staphylococcus aureus, 4220, 24 h, S. aureus 4220, Gram-positive; 24 h culture; read-out: MIC
Task for the reader: assign each of the following compounds its reported MIC.
One number for each entry, in µg/mL.

Guide cases for MIC, answers given:
# compound, unit.descriptor, MIC
rows = [
    ("COc1ccc2c(c1)/C(=C(\\C)O)C(=O)N2Cc1ccccc1", "µg/mL", 32),
    ("C/C(O)=C1/C(=O)N(C)c2cc(C(F)(F)F)ccc21", "µg/mL", 64),
    ("C/C(O)=C1/C(=O)N(C)c2ccc(Br)cc21", "µg/mL", 32),
    ("C/C(O)=C1/C(=O)N(C)c2ccc(C(F)(F)F)cc21", "µg/mL", 64),
    ("C/C(O)=C1/C(=O)N(C)c2cccc(F)c21", "µg/mL", 64),
]

# batch size: 3; output MIC per entry
1. CCCN1C(=O)/C(=C(/C)O)c2ccccc21
2. C/C(O)=C1/C(=O)N(C)c2ccc(C#N)cc21
3. C/C(O)=C1/C(=O)N(C)c2c(Br)cccc21

### Response
1. 64
2. 64
3. 32

# batch size: 4; output MIC per entry
1. C/C(O)=C1/C(=O)N(C)c2ccccc21
2. C/C(O)=C1/C(=O)N(C)c2cc(Cl)ccc21
3. C/C(O)=C1/C(=O)N(C)c2c(Cl)cccc21
4. COc1c(N2CCNC(C)C2)c(F)cc2c(=O)c(C(=O)O)cn(C3CC3)c12 (stereo not shown) [Gati, Gatifloxacin, reference compound]

### Response
1: 64; 2: 32; 3: 32; 4: 0.5
